// data source = the supplement of paper PMC7765376

- Test system: PEO-1
- procedureDetails: Excess HSA synergy score (sum over dose matrix of excess over highest single agent) (score (summed % response)); higher = less synergy / more antagonism (negative = synergy)
- conditionSummary: 72 h; read-out: viability/apoptosis luminescence (CellTiter-Glo or Caspase3-Glo / not stated per table); matrix design: 6x6, 5-fold dilutions (primary screen)
In all, about 1,500 compounds were measured (“Excess HSA synergy score (sum over dose matrix of excess over highest single agent)”: median about 43, lowest 2% from about -900 on). The list comes from a sample in which the lowest values are over-represented; it also holds close analogues and randomly drawn compounds.
attributeMeasured: Excess HSA synergy score
Please give the numeric answer without any surrounding text.

[Q] Entry NS(=O)(=O)OC[C@@H]1C[C@@H](n2ccc3c(N[C@H]4CCc5ccccc54)ncnc32)C[C@@H]1O + CC[C@H](NC(=O)[C@H](C)NC)C(=O)N1C[C@@H](O)C[C@H]1Cc1c(-c2[nH]c3cc(F)ccc3c2C[C@@H]2C[C@H](O)CN2C(=O)[C@H](CC)NC(=O)[C@H](C)NC)[nH]c2cc(F)ccc12 : reported Excess HSA synergy score = ?
[A] -120

[Q] I am curious: what Excess HSA synergy score value has been reported for Nc1cc(C(F)(F)F)c(-c2cc(N3CCOCC3)nc(N3CCOCC3)n2)cn1 + CC[C@H](NC(=O)[C@H](C)NC)C(=O)N1C[C@@H](O)C[C@H]1Cc1c(-c2[nH]c3cc(F)ccc3c2C[C@@H]2C[C@H](O)CN2C(=O)[C@H](CC)NC(=O)[C@H](C)NC)[nH]c2cc(F)ccc12 ?
[A] 242

###

- Tested on: PEO-1
- procedureDetails: Excess HSA synergy score (sum over dose matrix of excess over highest single agent) (score (summed % response)); higher = less synergy / more antagonism (negative = synergy)
- conditionSummary: 72 h; read-out: viability/apoptosis luminescence (CellTiter-Glo or Caspase3-Glo / not stated per table); matrix design: 6x6, 5-fold dilutions (primary screen)
The full ranking holds about 1,500 compounds; the median of “Excess HSA synergy score (sum over dose matrix of excess over highest single agent)” is about 43, and the lowest 2% start at about -900. The entries come from a sample that favours the lowest values as a whole.
Checkbox rule: Excess HSA synergy score lower than 10 = rule met; Excess HSA synergy score not lower than 10 = rule not met.

[Q] Is Excess HSA synergy score of CC(C)(OCc1nn(Cc2ccccc2)c2ccccc12)C(=O)O [Bindarit] + CC[C@H](NC(=O)[C@H](C)NC)C(=O)N1C[C@@H](O)C[C@H]1Cc1c(-c2[nH]c3cc(F)ccc3c2C[C@@H]2C[C@H](O)CN2C(=O)[C@H](CC)NC(=O)[C@H](C)NC)[nH]c2cc(F)ccc12 strictly below 10?
[A] rule met

[Q] Quick check: Excess HSA synergy score of Cc1ccccc1C(C(=O)NC1CCCCC1)N(C(=O)Cn1ccnc1C)c1cccc(F)c1 (configuration not stated) + CC[C@H](NC(=O)[C@H](C)NC)C(=O)N1C[C@@H](O)C[C@H]1Cc1c(-c2[nH]c3cc(F)ccc3c2C[C@@H]2C[C@H](O)CN2C(=O)[C@H](CC)NC(=O)[C@H](C)NC)[nH]c2cc(F)ccc12 under 10?
[A] rule not met

[Q] I'd appreciate it if you could check whether C[C@@H](Oc1cc(-c2cnn(C3CCNCC3)c2)cnc1N)c1c(Cl)ccc(F)c1Cl [Crizotinib] + CC[C@H](NC(=O)[C@H](C)NC)C(=O)N1C[C@@H](O)C[C@H]1Cc1c(-c2[nH]c3cc(F)ccc3c2C[C@@H]2C[C@H](O)CN2C(=O)[C@H](CC)NC(=O)[C@H](C)NC)[nH]c2cc(F)ccc12 has Excess HSA synergy score smaller than 10.
[A] rule met

[Q] Below 10 on Excess HSA synergy score? Entry Cc1cnc(Nc2ccc(F)cc2Cl)nc1-c1c[nH]c(C(=O)N[C@H](CO)c2cccc(Cl)c2)c1 + CC[C@H](NC(=O)[C@H](C)NC)C(=O)N1C[C@@H](O)C[C@H]1Cc1c(-c2[nH]c3cc(F)ccc3c2C[C@@H]2C[C@H](O)CN2C(=O)[C@H](CC)NC(=O)[C@H](C)NC)[nH]c2cc(F)ccc12
[A] rule not met

[Q] Field: below-cutoff. Rule: recorded Excess HSA synergy score strictly less than 10. Subject: CN(C)c1nc(Cc2ccc(NC(=O)c3ccc4ccccc4c3)cc2)nc(Cl)c1CC(=O)O + CC[C@H](NC(=O)[C@H](C)NC)C(=O)N1C[C@@H](O)C[C@H]1Cc1c(-c2[nH]c3cc(F)ccc3c2C[C@@H]2C[C@H](O)CN2C(=O)[C@H](CC)NC(=O)[C@H](C)NC)[nH]c2cc(F)ccc12
[A] rule not met

[Q] Quick check: Excess HSA synergy score of N#CC(=Cc1ccc(O)c(O)c1)C(=O)NCc1ccccc1 [Tyrphostin B42] + CC[C@H](NC(=O)[C@H](C)NC)C(=O)N1C[C@@H](O)C[C@H]1Cc1c(-c2[nH]c3cc(F)ccc3c2C[C@@H]2C[C@H](O)CN2C(=O)[C@H](CC)NC(=O)[C@H](C)NC)[nH]c2cc(F)ccc12 under 10?
[A] rule not met

[Q] Record COc1cccc2c(NCc3ccccc3)nc(-n3c(N)nc4ccccc43)nc12 + CC[C@H](NC(=O)[C@H](C)NC)C(=O)N1C[C@@H](O)C[C@H]1Cc1c(-c2[nH]c3cc(F)ccc3c2C[C@@H]2C[C@H](O)CN2C(=O)[C@H](CC)NC(=O)[C@H](C)NC)[nH]c2cc(F)ccc12 : is its Excess HSA synergy score strictly below 10?
[A] rule not met

###

- System: PEO-1
- procedureDetails: Excess HSA synergy score (sum over dose matrix of excess over highest single agent) (score (summed % response)); higher = less synergy / more antagonism (negative = synergy)
- conditionSummary: 72 h; read-out: viability/apoptosis luminescence (CellTiter-Glo or Caspase3-Glo / not stated per table); matrix design: 10x10, 9-step dilutions (confirmatory)
Over roughly 1,500 compounds, “Excess HSA synergy score (sum over dose matrix of excess over highest single agent)” has its median near 43; the lowest 2% begin near -900. The entries come from a sample that favours the lowest values as a whole.
We label by threshold. Values of Excess HSA synergy score strictly beneath -1000 are satisfied. Values of -1000 and up are not satisfied.

[Q] Regarding C/C(=N\NC(=S)N1CCC1)c1ccccn1 + CC[C@H](NC(=O)[C@H](C)NC)C(=O)N1C[C@@H](O)C[C@H]1Cc1c(-c2[nH]c3cc(F)ccc3c2C[C@@H]2C[C@H](O)CN2C(=O)[C@H](CC)NC(=O)[C@H](C)NC)[nH]c2cc(F)ccc12 [Birinapant] , kindly confirm whether its Excess HSA synergy score is beneath -1000.
[A] satisfied

[Q] Record NS(=O)(=O)OC[C@@H]1C[C@@H](n2ccc3c(N[C@H]4CCc5ccccc54)ncnc32)C[C@@H]1O + CC[C@H](NC(=O)[C@H](C)NC)C(=O)N1C[C@@H](O)C[C@H]1Cc1c(-c2[nH]c3cc(F)ccc3c2C[C@@H]2C[C@H](O)CN2C(=O)[C@H](CC)NC(=O)[C@H](C)NC)[nH]c2cc(F)ccc12 [Birinapant] : is its Excess HSA synergy score strictly below -1000?
[A] satisfied

[Q] Please determine if Cc1[nH]c2ccccc2c1CCNCc1ccc(/C=C/C(=O)NO)cc1 [Panobinostat] + CC[C@H](NC(=O)[C@H](C)NC)C(=O)N1C[C@@H](O)C[C@H]1Cc1c(-c2[nH]c3cc(F)ccc3c2C[C@@H]2C[C@H](O)CN2C(=O)[C@H](CC)NC(=O)[C@H](C)NC)[nH]c2cc(F)ccc12 [Birinapant] is below -1000 in terms of Excess HSA synergy score.
[A] satisfied

[Q] A record lists Nc1nc(Cl)nc2c1ncn2[C@@H]1O[C@H](CO)[C@@H](O)[C@@H]1F [Clofarabine] + CC[C@H](NC(=O)[C@H](C)NC)C(=O)N1C[C@@H](O)C[C@H]1Cc1c(-c2[nH]c3cc(F)ccc3c2C[C@@H]2C[C@H](O)CN2C(=O)[C@H](CC)NC(=O)[C@H](C)NC)[nH]c2cc(F)ccc12 [Birinapant] . Is its Excess HSA synergy score below -1000?
[A] not satisfied

[Q] Determine whether this compound shows Excess HSA synergy score lower than -1000 (ties excluded): N#CN=C(NCCCCCCOc1ccc(Cl)cc1)Nc1ccncc1 + CC[C@H](NC(=O)[C@H](C)NC)C(=O)N1C[C@@H](O)C[C@H]1Cc1c(-c2[nH]c3cc(F)ccc3c2C[C@@H]2C[C@H](O)CN2C(=O)[C@H](CC)NC(=O)[C@H](C)NC)[nH]c2cc(F)ccc12 [Birinapant]
[A] satisfied

[Q] hey, is Excess HSA synergy score for COCC[n+]1c2c(n(Cc3cnccn3)c1C)C(=O)c1ccccc1C2=O [Sepantronium bromide] + CC[C@H](NC(=O)[C@H](C)NC)C(=O)N1C[C@@H](O)C[C@H]1Cc1c(-c2[nH]c3cc(F)ccc3c2C[C@@H]2C[C@H](O)CN2C(=O)[C@H](CC)NC(=O)[C@H](C)NC)[nH]c2cc(F)ccc12 [Birinapant] lower than -1000 or not?
[A] not satisfied
